- Test system: Soluble Methane Monooxygenase
- TEST_SUMMARY: Effect of potential inhibitors on propylene oxidation by the soluble S(80) fraction (Example 9)
- Format: biochemical, Methylobacterium organophilum (CRL.26)
EXPERIMENTAL_READOUT: inhibition of soluble methane monooxygenase activity (in words)

[[record]]
compound = "NNC(N)=S [Thiosemicarbazide]"
target_system = "Soluble Methane Monooxygenase"
reported = "not inhibited"

[[record]]
compound = "O=C(O)c1cc(SSc2ccc([N+](=O)[O-])c(C(=O)O)c2)ccc1[N+](=O)[O-] [5,5'-dithiobis-2-nitrobenzoate]"
target_system = "Soluble Methane Monooxygenase"
reported = "inhibit"

[[record]]
compound = "c1cnc2c(c1)ccc1cccnc12"
target_system = "Soluble Methane Monooxygenase"
reported = "not inhibited"

[[record]]
compound = "NC(=O)CI [Iodoacetamide]"
target_system = "Soluble Methane Monooxygenase"
reported = "inhibit"


* * *

- Test system: Soluble Methane Monooxygenase
- TEST_SUMMARY: Effect of potential inhibitors on propylene oxidation by the soluble S(80) fraction (Example 9)
- Assay type: biochemical, Methylobacterium organophilum (CRL.26)
- REPORTED_CONDITIONS: inhibitor 1 mM, incubated at 0°C for 15 min; propylene substrate; percentage of control (100%) containing no inhibitor
Below, each of the compounds is paired with its reported Activity (%) value.
EXPERIMENTAL_READOUT: Activity (%)

[[record]]
compound = "c1cnc2c(c1)ccc1cccnc12 [1,10-Phenanthroline]"
target_system = "Soluble Methane Monooxygenase"
experimental_readout = "Activity (%)"
reported = 67

[[record]]
compound = "NNC(N)=S [Thiosemicarbazide]"
target_system = "Soluble Methane Monooxygenase"
experimental_readout = "Activity (%)"
reported = 108

[[record]]
compound = "NC(=O)CI [Iodoacetamide]"
target_system = "Soluble Methane Monooxygenase"
experimental_readout = "Activity (%)"
reported = 20

[[record]]
compound = "O=C(O)c1cc(SSc2ccc([N+](=O)[O-])c(C(=O)O)c2)ccc1[N+](=O)[O-] [5,5'-dithiobis-2-nitrobenzoate]"
target_system = "Soluble Methane Monooxygenase"
experimental_readout = "Activity (%)"
reported = 38

[[record]]
compound = "CCN1C(=O)C=CC1=O [N-Ethylmaleimide]"
target_system = "Soluble Methane Monooxygenase"
experimental_readout = "Activity (%)"
reported = 102


* * *

- System: Soluble Methane Monooxygenase
- TEST_SUMMARY: Effect of potential inhibitors on propylene oxidation by the soluble S(80) fraction (Example 9)
- Assay type: biochemical, Methylobacterium organophilum (CRL.26)
- REPORTED_CONDITIONS: inhibitor 1 mM, incubated at 0°C for 15 min; propylene substrate; percentage of control containing no inhibitor
EXPERIMENTAL_READOUT: Inhibition (%)

[[record]]
compound = "CCN1C(=O)C=CC1=O [N-Ethylmaleimide]"
experimental_readout = "Inhibition (%)"
reported = 0

[[record]]
compound = "NNC(N)=S [Thiosemicarbazide]"
experimental_readout = "Inhibition (%)"
reported = 0

[[record]]
compound = "O=C(O)c1cc(SSc2ccc([N+](=O)[O-])c(C(=O)O)c2)ccc1[N+](=O)[O-] [5,5'-dithiobis-2-nitrobenzoate]"
experimental_readout = "Inhibition (%)"
reported = 62

[[record]]
compound = "NC(=O)CI [Iodoacetamide]"
experimental_readout = "Inhibition (%)"
reported = 80

[[record]]
compound = "c1cnc2c(c1)ccc1cccnc12"
experimental_readout = "Inhibition (%)"
reported = 33

